- Test system: sera from patients infected with group O HIV-1 retroviruses
- method_notes: Immunoenzymatic test: Test No. 1 (immunoreactivity of peptides coated on microplates)
- Format: binding, human
- Parameters: key: >: signal greater than the reading capacity of the spectrophotometer
- conditions: serum 3600*; cyclized peptide 2 μg/ml
No end group written: not given here.
property: ABSORBANCE

Example entries and their recorded answers appear below.
LLSSWGCKGRLVCYTSVQWNET [PEPTIDE No. 3 (4B)]
>
LLNLWGCKNRAICYTSVKWNKT (cysteine pairing not given here) [VAU 22 AA, reference compound]
>
LLSLWGCRGKAVCYTSVQWNET [PEPTIDE No. 1 (2B)]
2.743
RLLALETFIEENELLNLWGCKNRAICYTSVKWNKT (cysteine pairing not given here) [VAU 35 AA, reference compound]
>

Would you kindly look at the next entry?
IN: Look up ABSORBANCE: LLSLWGCRGRLVCYTSVQWNET [PEPTIDE No. 2 (3B)]
OUT: >

###

Exercise: for every item that follows, state its recorded ABSORBANCE (OD).
- Test system: serum samples from patients infected with group O HIV-1 retroviruses
- method_notes: Immunoenzymatic test: Test No. 2 (immunoreactivity with diluted sera)
- Assay type: binding, human
- conditions: serum MBASSI at 1/100; solid phase peptide 2 μg/ml, cyclized
No end group written: not given here.

IN: Tell me reported ABSORBANCE (OD) for ALETLLQNQQLLNIWGCRGRLVCYTSVRWNET [PEPTIDE No. 12 (19B)] , tested with serum samples from patients infected with group O HIV-1 retroviruses.
OUT: 0.747

IN: Note, next up: RALETLLNQQRLLNSWGCKGRLVCYTSV [PEPTIDE No. 15 (22B)]
OUT: 2.010

IN: Note, next up: LLNSWGCKGRLVCYTS [PEPTIDE No. 10 (14B)]
OUT: 1.217

IN: Note, next up: RLLALETFIEENELLNLWGCKNRAICYTSVKWNKT (cysteine pairing not given here) [VAU 35 AA, reference compound]
OUT: 0.120

###

- Test system: sera from patients infected with group O HIV-1 retroviruses
- method_notes: Immunoenzymatic test: Test No. 1 (immunoreactivity of peptides coated on microplates)
- Format: binding, human
- conditions: serum 5931; cyclized peptide 2 μg/ml
No end group written: not given here.
property: ABSORBANCE

LLNLWGCKNRAICYTSVKWNKT (cysteine pairing not given here) [VAU 22 AA, reference compound]
0.202
LLSSWGCKGRLVCYTSVQWNET [PEPTIDE No. 3 (4B)]
>
LLSLWGCRGRLVCYTSVQWNET [PEPTIDE No. 2 (3B)]
>
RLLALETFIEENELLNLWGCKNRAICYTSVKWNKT (cysteine pairing not given here) [VAU 35 AA, reference compound]
2.225

IN: Look up ABSORBANCE: LLSLWGCRGKAVCYTSVQWNET [PEPTIDE No. 1 (2B)]
OUT: >

###

- Tested on: sera from patients infected with group O HIV-1 retroviruses
- method_notes: Immunoenzymatic test: Test No. 1 (immunoreactivity of peptides coated on microplates)
- Format: binding, human
- Design: key: >: signal greater than the reading capacity of the spectrophotometer
- conditions: serum 1702; cyclized peptide 2 μg/ml
- Procedure: The sera used ESS, DUR, VAU and HAD are sera from French patients infected with group O HIV-1 retroviruses. […] After washing with a Tris-NaCl buffer solution pH 7.4 containing 0.1% of Tween® 20 and 0.001% of sodium merthiolate, the colour was developed by adding, to each well, 100 μl of O-phenylenediamine in solution in hydrogen peroxide. […] The absorbance (A) was determined at 490 and 620 nm. The relative absorbance (A490-A620) read in each well is proportional to the immunoreactivity of each peptide. […]
No end group written: not given here.
property: ABSORBANCE

Example entries and their recorded answers appear below.
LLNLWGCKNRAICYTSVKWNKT (cysteine pairing not given here) [VAU 22 AA, reference compound]
>
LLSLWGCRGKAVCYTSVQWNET [PEPTIDE No. 1 (2B)]
1.162
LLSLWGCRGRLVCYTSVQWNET [PEPTIDE No. 2 (3B)]
>
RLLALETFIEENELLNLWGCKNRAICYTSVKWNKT (cysteine pairing not given here) [VAU 35 AA, reference compound]
>

Would you kindly look at the next entry?
IN: Look up ABSORBANCE: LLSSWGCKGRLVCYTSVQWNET [PEPTIDE No. 3 (4B)]
OUT: >
